Assay system Trypsin from bovine pancreas (Bos taurus, UniProt P00760); read-out recorded as Ki.
observation type: Ki (µM)

molecule	observed result
N=C(N)NCCC[C@@H](CO)NC(=O)[C@H]1Cc2ccccc2N1C(=O)[C@@H](CCc1ccccc1)NC(=O)[C@H](O)Cc1ccccc1 (single isomer, unassigned) [Compound 11d]	29
N=C(N)NCCC[C@@H](CO)NC(=O)[C@@H]1Cc2ccccc2N1C(=O)[C@@H](CCc1ccccc1)NC(=O)[C@H](O)Cc1ccccc1 (single isomer, unassigned) [Compound 11j]	693
COC(=O)[C@H](CCCNC(=N)N)NC(=O)[C@H]1Cc2ccccc2N1C(=O)[C@@H](CCc1ccccc1)NC(=O)[C@H](O)Cc1ccccc1 (single isomer, unassigned) [Compound 11b]	2.8
COC(=O)[C@H](CCCNC(=N)N)NC(=O)[C@@H]1Cc2ccccc2N1C(=O)[C@@H](CCc1ccccc1)NC(=O)[C@H](O)Cc1ccccc1 (single isomer, unassigned) [Compound 11h]	58
COC(=O)[C@H](CCCNC(=N)N)NC(=O)[C@H]1Cc2ccccc2N1C(=O)[C@@H](CC(C)C)NC(=O)[C@H](O)Cc1ccccc1 (single isomer, unassigned) [Compound 29b]	134
